Values compiled from patent US6361595B1.

Give microbial contamination, colony-forming units per gram for every item shown.
tested on: mixed culture of Gram-positive cocci, Gram-negative cocci, Gram-positive rods and Gram-negative rods; assay: Microbial contamination of dried Pigment Yellow 65 powder (Example 2 procedure) after mixing filter cake with bacterial culture; type: cell-based, bacteria; details: PY65, with 3 parts dibutyl sebacate, 1.0 parts biocide

Input line: Which microbial contamination, colony-forming units per gram reading was recorded for the compound CCCCCCCCn1sccc1=O ?
Output line: >10^4 cfu/g

Input line: For Cn1sccc1=O then?
Output line: >10^3 cfu/g

Input line: Next up: CCCCn1sc2ccccc2c1=O
Output line: >10^4 cfu/g

Input line: Next compound up: O=c1[nH]sc2ccccc12
Output line: >10^4 cfu/g
